biological target: Retinoic acid receptor RXR-alpha (Homo sapiens); test: qHTS assay to identify small molecule agonists of the RXR signaling pathway (AID 1159527); conditions: HEK293T RXRa-UAS-bla, beta-lactamase ratio, 16 h; series mostly up to 76.8 µM; further: nearly all actives have a fitted effect of over 35% in size
Results filed as inconclusive are left out. The source made the active and inactive calls. The call rests on the fitted dose curve.
Outcome codes: active, inactive

compound	test-system	class-name
O=C1c2ccccc2C(=O)C1c1nc2ccccc2c(Br)c1O	Retinoic acid receptor RXR-alpha (Homo sapiens)	inactive
CCOC(C)=O	Retinoic acid receptor RXR-alpha (Homo sapiens)	inactive
CC(O)c1ccccc1 (stereo unspecified)	Retinoic acid receptor RXR-alpha (Homo sapiens)	inactive
N#CCc1ccc(Cl)cc1Cl	Retinoic acid receptor RXR-alpha (Homo sapiens)	inactive
CCOC(=O)/C=C/C(=O)OCC	Retinoic acid receptor RXR-alpha (Homo sapiens)	inactive
CCC1CO1 (stereo unspecified)	Retinoic acid receptor RXR-alpha (Homo sapiens)	inactive
CCCCCC[C@@H](O)C/C=C\CCCCCCCC(=O)OCC(O)CO (stereo partly specified)	Retinoic acid receptor RXR-alpha (Homo sapiens)	active
CCCCCCCCOc1ccc(C(=O)O)cc1	Retinoic acid receptor RXR-alpha (Homo sapiens)	active
Cc1ccccc1N=C(N)Nc1ccccc1C	Retinoic acid receptor RXR-alpha (Homo sapiens)	inactive
C=C1C[C@@]23CC[C@H]4[C@@](C)(CCC[C@@]4(C)C(=O)O[C@@H]4O[C@H](CO)[C@@H](O)[C@H](O)[C@H]4O)[C@@H]2CC[C@]1(O[C@@H]1O[C@H](CO)[C@@H](O)[C@H](O[C@@H]2O[C@H](CO)[C@@H](O)[C@H](O)[C@H]2O)[C@H]1O[C@@H]1O[C@H](CO)[C@@H](O)[C@H](O)[C@H]1O)C3	Retinoic acid receptor RXR-alpha (Homo sapiens)	inactive
CCC(OCCCOC)OC(C)=O (stereo unspecified)	Retinoic acid receptor RXR-alpha (Homo sapiens)	inactive

###

test: qHTS assay to identify small molecule agonists of the estrogen receptor alpha (ER-alpha) signaling pathway in the presence of an antagonist - cell viability counter screen (AID 1259386); conditions: VM7Luc4E2 viability, CellTiter-Fluor fluorescence, 22 h; series mostly up to 92.4 µM;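 further: cells exposed to compounds for 22 h at 37 °C before the viability read; nearly all actives have a fitted effect of over 30% in size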
Records with an inconclusive call do not appear. Activity calls are given as the source filed them. Calls come from the whole dose curve; as a rule, active = well fitted cell-killing curve with a large enough effect in the repeat runs; inconclusive = weak or mixed curves, or effect the other way; inactive = no such curve, though single readings can be large or run the other way.
Outcomes: active, inactive

compound	class-name
c1csc(SSc2cccs2)c1	inactive
Cc1ccc(Cl)c(Nc2ccccc2C(=O)O)c1Cl	inactive
O=C(CCCN1CC=C(n2c(=O)[nH]c3ccccc32)CC1)c1ccc(F)cc1	inactive
Cc1cc(O)c(C)c(C)c1O	inactive
c1ccc2sc(SN(C3CCCCC3)C3CCCCC3)nc2c1	inactive
O[C@@H]1CO[C@H]2[C@@H]1OC[C@@H]2O	inactive
O=[N+]([O-])c1ccc(Nc2ccc(Nc3ccccc3)c(S(=O)(=O)O)c2)c([N+](=O)[O-])c1	active
O=C(/C=C/c1ccc(O)c(O)c1)O[C@@H]1C[C@@](OC(=O)/C=C/c2ccc(O)c(O)c2)(C(=O)O)C[C@@H](O)[C@@H]1O	inactive
CNC(=O)c1cnn(-c2nc(N)c3ncn([C@@H]4O[C@H](CO)[C@@H](O)[C@H]4O)c3n2)c1	inactive
CC(CCC(=O)O)C(=O)O (stereo unspecified)	inactive
C=C1CCC2CC1C2(C)C (stereo unspecified)	inactive

###

test: A CellTox Green Cytotoxicity Assay to monitor cytotoxicity in HepG2 cells - 24 hour (AID 1224878); settings: CellTox Green fluorescence; series mostly up to 76.8 µM; further: nearly all actives have a fitted effect of over 45% in size
Results filed as inconclusive are left out. Calls of active or inactive are those of the source. Calls follow the shape of the dose curve; as a rule, active = well fitted activation curve with a large enough effect in the repeat runs; inconclusive = weak or mixed curves; inactive = flat fitted curve, though single readings scatter.
Outcome codes: Yes = active, No = inactive

compound	class-name
C=CC(C)(CCC=C(C)C)OC(=O)CC(C)C (stereo not given)	No
CCOc1cccc(-n2cc(C(=O)N3CCN(c4cc(C(=O)O)c5ccccc5c4)CC3)nc2-c2ccc(C)cc2)c1	No
c1ccc(C[n+]2cccc3ccccc32)cc1	No
Brc1cc(Br)c(Oc2cc(Br)c(Br)cc2Br)cc1Br	No
CCC(C)COC(=O)CC(C)C (stereo not given)	Yes
CO/N=C(/C(=O)N[C@@H]1C(=O)N2C(C(=O)O)=C(COC(N)=O)CS[C@H]12)c1ccco1	No
COc1cc(Nc2c(C#N)cnc3cc(OCCCN4CCN(C)CC4)c(OC)cc23)c(Cl)cc1Cl	Yes
CC(C)=CCC/C(C)=C/CC/C(C)=C/C(=O)OCC(=O)[C@@]1(O)CC[C@H]2[C@@H]3CCC4=CC(=O)C=C[C@]4(C)[C@H]3[C@@H](O)C[C@@]21C	No
CCOc1ccccc1O[C@H](c1ccccc1)[C@H]1CNCCO1	No
O=C(O)c1ccc(OCCCOc2ccc(C(=O)O)cc2)cc1	No

###

biological target: Estrogen receptor (Homo sapiens) (UniProt P03372); assay: qHTS assay to identify small molecule agonists of the estrogen receptor alpha (ER-alpha) signaling pathway using the BG1 cell line (AID 743079); settings: BG1Luc4E2 cells, ERE-luciferase agonist, 22 h; further: nearly all actives have a fitted effect of over 20% in size
Sequence (P03372 whole entry, looked up): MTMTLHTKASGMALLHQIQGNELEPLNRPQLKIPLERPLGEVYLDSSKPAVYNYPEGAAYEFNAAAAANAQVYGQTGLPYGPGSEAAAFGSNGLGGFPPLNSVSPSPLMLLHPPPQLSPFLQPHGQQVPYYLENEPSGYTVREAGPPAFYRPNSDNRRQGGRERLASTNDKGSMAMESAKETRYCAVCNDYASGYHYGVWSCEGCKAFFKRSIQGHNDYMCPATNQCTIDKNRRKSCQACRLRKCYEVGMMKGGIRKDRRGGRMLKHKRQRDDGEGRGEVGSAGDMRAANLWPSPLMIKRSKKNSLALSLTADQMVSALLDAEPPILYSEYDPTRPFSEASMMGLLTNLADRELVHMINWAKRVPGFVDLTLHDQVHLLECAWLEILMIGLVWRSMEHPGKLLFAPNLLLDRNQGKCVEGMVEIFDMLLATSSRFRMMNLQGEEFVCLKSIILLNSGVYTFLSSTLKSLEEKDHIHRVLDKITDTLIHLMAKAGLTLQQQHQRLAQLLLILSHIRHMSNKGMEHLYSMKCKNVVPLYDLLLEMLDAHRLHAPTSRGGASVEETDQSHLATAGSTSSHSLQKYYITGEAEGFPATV
Results filed as inconclusive are left out. Activity calls are given as the source filed them. Calls come from the whole dose curve; as a rule, active = well fitted activation curve with a large enough effect in the repeat runs; inconclusive = weak or mixed curves, or effect the other way; inactive = no such curve, though single readings can be large or run the other way.
Possible outcomes: active, inactive

compound	class-name
C=COCC(C)C	inactive
CC(C)=CCC/C(C)=C/CC/C(C)=C/CCC(=O)OC/C=C(\C)CCC=C(C)C	inactive
CCC(C)COC(C)=O (centres undefined)	inactive
CC(C)=CC(=O)C=C(C)C	inactive
CC=C(Cl)Cl	inactive
CCn1cc(C(=O)O)c(=O)c2cc(F)c(N3CCNCC3)cc21	inactive
CN1CC(=O)N2[C@H](c3ccc4c(c3)OCO4)c3[nH]c4ccccc4c3C[C@@H]2C1=O	inactive
N#CCc1ccc(Cl)cc1Cl	inactive
C=C(C)C(=O)OCCCCCCCCCCCCC	inactive
COc1ccccc1Oc1c(NS(=O)(=O)c2ccc(C(C)(C)C)cc2)nc(-c2ncccn2)nc1OCCO	inactive
CCCCCCC(C)(C)C(=O)O	inactive
CC(C)c1nc(CN(C)C(=O)N[C@H](C(=O)N[C@@H](Cc2ccccc2)C[C@H](O)[C@H](Cc2ccccc2)NC(=O)OCc2cncs2)C(C)C)cs1	inactive
CCCC(=O)C(=O)O	inactive
CCN(CC)CCNC(=O)COc1ccc(OC)cc1	active
OCCN1CCN(CCCN2c3ccccc3Sc3ccc(Cl)cc32)CC1	inactive
CCOC(=O)c1ccc(I)cc1	inactive
COc1cc(C(=O)NCCCCCC(=O)O)cc(OC)c1OC	inactive
CC(C)COCC(CN(Cc1ccccc1)c1ccccc1)N1CCCC1 (centres undefined)	inactive
CN1C(=O)OC(C)(C)C1=O	inactive
Cc1ccc(CO)cc1	inactive
O=C(CCCN1CC=C(n2c(=O)[nH]c3ccccc32)CC1)c1ccc(F)cc1	inactive
CCOC(=O)[C@H](CCc1ccccc1)N[C@@H](C)C(=O)N(CC(=O)O)C1Cc2ccccc2C1	inactive
Cc1ccccc1N=C(N)Nc1ccccc1C	inactive
CCOC(=O)/C=C/C(=O)OCC	inactive
CN1CCCN=C1COC(=O)C(O)(c1ccccc1)C1CCCCC1 (centres undefined)	inactive
O=c1[nH]ncc2ccccc12	inactive
Clc1ccc(Nc2nnc(Cc3ccncc3)c3ccccc23)cc1	inactive
Cc1cc(C)c(N)cc1C	inactive
OCCOCC#CCOCCO	inactive
C=C(C)CCCC(C)CCO (centres undefined)	inactive
FC(F)(F)c1ccccc1Cl	inactive
C=CC(C)(CCC=C(C)C)OC(=O)CC(C)C (centres undefined)	inactive
CN(C)CCN1C(=O)c2ccccc2N(C)c2ccccc21	inactive
C=C1CCC2CC1C2(C)C (centres undefined)	inactive
CCC(=O)OC	inactive
O=C1Cc2ccccc2N1c1c(Cl)cccc1Cl	active
N#CCCN(CCO)CCO	inactive
COC(=O)CCS	inactive
CC1(C)[C@H](C(=O)O)N2C(=O)C[C@H]2S1(=O)=O	inactive
CC1(C)O[C@@H]2C[C@H]3[C@@H]4C[C@H](F)C5=CC(=O)C=C[C@]5(C)[C@H]4[C@@H](O)C[C@]3(C)[C@]2(C(=O)CO)O1	inactive
COc1ccccc1N1CCN(CCCCNC(=O)c2ccc(-c3ccc(C(C)=O)cc3)cc2)CC1	inactive
C=CC(=O)[O-].C=CC(=O)[O-].[Zn+2]	inactive
CCCCC(CC)COP(=O)(O)O (centres undefined)	inactive
COC(=O)C1=C(C)NC(C)=C(C(=O)O[C@@H]2CCCN(Cc3ccccc3)C2)[C@@H]1c1cccc([N+](=O)[O-])c1	inactive
CN1CCCC(n2nc(Cc3ccc(Cl)cc3)c3ccccc3c2=O)CC1 (centres undefined)	inactive
CCC=CC#N	inactive
CC(O)c1ccccc1 (centres undefined)	inactive
Cc1cc(C)cc(N)c1	inactive
O=C(O)CCCCCCCCCCCBr	inactive
Nc1ncnc2c1ncn2[C@H]1CC[C@@H](CO)O1	inactive
Cc1ccc(Cl)c(Nc2ccccc2C(=O)O)c1Cl	inactive
Oc1cccc(Nc2ccccc2)c1	active
Nc1cccc2c1CN(C1CCC(=O)NC1=O)C2=O (centres undefined)	inactive
CN(C)CCC=C1c2ccccc2C=Cc2ccccc21	inactive

###

target: Nuclear receptor subfamily 1 group I member 2 (Homo sapiens) (UniProt O75469); assay: Human pregnane X receptor (PXR) small molecule agonists, qHTS assay (AID 1346982); details: PXR-Luc HepG2, CYP3A4 luciferase reporter, 24 h; series mostly up to 92.4 µM; further: nearly all actives have a fitted effect of over 35% in size
Sequence (O75469 whole entry, looked up): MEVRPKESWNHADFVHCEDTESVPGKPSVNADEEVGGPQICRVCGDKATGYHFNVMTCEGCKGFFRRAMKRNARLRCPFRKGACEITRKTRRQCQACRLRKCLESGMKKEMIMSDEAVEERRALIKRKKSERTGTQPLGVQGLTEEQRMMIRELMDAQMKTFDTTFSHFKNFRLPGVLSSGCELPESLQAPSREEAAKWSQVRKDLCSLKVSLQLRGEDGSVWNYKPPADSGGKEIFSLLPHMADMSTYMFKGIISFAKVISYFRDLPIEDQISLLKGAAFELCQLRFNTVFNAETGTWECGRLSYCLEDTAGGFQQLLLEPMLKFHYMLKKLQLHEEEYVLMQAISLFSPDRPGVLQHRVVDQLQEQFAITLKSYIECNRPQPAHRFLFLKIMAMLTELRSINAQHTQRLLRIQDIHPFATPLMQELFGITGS
Inconclusive results are not listed. Activity calls are given as the source filed them. Calls come from the whole dose curve; as a rule, active = well fitted activation curve with a large enough effect in the repeat runs; inconclusive = weak or mixed curves; inactive = no such curve, though single readings can be large or run the other way.
Outcomes: 1 = active, 0 = inactive

molecule	test-system	class-name
CN1C(C(=O)Nc2ccccn2)=C(O)c2sccc2S1(=O)=O	Nuclear receptor subfamily 1 group I member 2 (Homo sapiens) (UniProt O75469)	0
CN1CCCN=C1COC(=O)C(O)(c1ccccc1)C1CCCCC1 (configuration not stated)	Nuclear receptor subfamily 1 group I member 2 (Homo sapiens) (UniProt O75469)	0
CCOC(=O)c1ccc(C#Cc2ccc3c(c2)C(C)(C)CCS3)nc1	Nuclear receptor subfamily 1 group I member 2 (Homo sapiens) (UniProt O75469)	1
CCOC(C)=O	Nuclear receptor subfamily 1 group I member 2 (Homo sapiens) (UniProt O75469)	0
O=C1c2ccccc2C(=O)C1(O)O	Nuclear receptor subfamily 1 group I member 2 (Homo sapiens) (UniProt O75469)	1
CCC(=O)C1CC(C(C)C)CC=C1C (configuration not stated)	Nuclear receptor subfamily 1 group I member 2 (Homo sapiens) (UniProt O75469)	1
Nc1ccc(N=Nc2ccccc2)c(N)c1	Nuclear receptor subfamily 1 group I member 2 (Homo sapiens) (UniProt O75469)	1

FYI, the data here is from PubChem BioAssay (Tox21).
